Parameter: MIC. Scope: all listed entries.
# Tested on: Pseudomonas aeruginosa
# procedure text: Antimicrobial activity against Pseudomonas aeruginosa MTCC 1034 after 18 hrs by broth micro dilution method
# Assay type: functional
# stated conditions: MTCC 1034, 18 h
measure: MIC (µg/mL)

[[record]]
smiles_record = "COc1ccccc1N1CCN(CCCNS(=O)(=O)c2cc3c(cc2C)OCC(=O)N3)CC1"
measure = "MIC"
recorded_value = 500

[[record]]
smiles_record = "Cc1cc2c(cc1S(=O)(=O)N1CCN(c3ccc(C(F)(F)F)cc3)CC1)N(CC(=O)c1ccccc1)C(=O)CO2"
measure = "MIC"
recorded_value = 250

[[record]]
smiles_record = "Cc1cc2c(cc1S(=O)(=O)N1CCN(c3ccc(C(F)(F)F)cc3)CC1)N(CC(=O)c1cccs1)C(=O)CO2"
measure = "MIC"
recorded_value = 31.2

[[record]]
smiles_record = "COc1ccccc1N1CCN(S(=O)(=O)c2cc3c(cc2C)OCC(=O)N3CC(=O)c2ccc(Cl)cc2)CC1"
measure = "MIC"
recorded_value = 250

[[record]]
smiles_record = "Cc1cc2c(cc1S(=O)(=O)NCCCN1CCN(c3ccc(C(F)(F)F)cc3)CC1)NC(=O)CO2"
measure = "MIC"
recorded_value = 250

[[record]]
smiles_record = "Cc1cc2c(cc1S(=O)(=O)NCCCN1CCN(c3ccccc3)CC1)NC(=O)CO2"
measure = "MIC"
recorded_value = 250

[[record]]
smiles_record = "Cc1cc2c(cc1S(=O)(=O)N1CCN(c3ccc(C(F)(F)F)cc3)CC1)N(CC(=O)c1ccc(-c3ccccc3)cc1)C(=O)CO2"
measure = "MIC"
recorded_value = 125

[[record]]
smiles_record = "COc1ccccc1N1CCN(S(=O)(=O)c2cc3c(cc2C)OCC(=O)N3CC(=O)c2ccccc2)CC1"
measure = "MIC"
recorded_value = 125

